Target: LDHA (Homo sapiens, UniProt P00338)
Assay: Intracellular LDH activity in lysates of MA-treated cancer cells
Assay type: cell-based
Set-up: One microgram of total protein from cell or tissue lysates was used for intracellular or in vivo LDH assays; endogenous in cells; host or cells: WiDr, DLD-1, RKO, HT29, MCF7, Huh-7, HepG2, Hep3B, HCC-95, NCI-H1793
Conditions: DLD-1 cells; normoxic
value-type: IC50 (µM)
Give just the number in µM; leave the unit off.

Briefly, IC50 measured for C[C@H](Cc1ccc2c(c1)OCO2)[C@@H](C)Cc1ccc2c(c1)OCO2 [MA, bis(3,4-methylenedioxy)-8,8’-lignan] : 129
